Tested on: Puccinia recondita f. sp. tritici
Test: Test B: wheat leaf rust, spray on wheat seedlings, disease control rating
Type: in vivo
Conditions: Puccinia recondita, 192 h; Rate 10 ppm; 100 = 100% disease control, 0 = no disease control relative to the controls
Kindly state pest or weed control at 10 ppm for each of the entries shown.
Answer by giving the amount and then stating its unit.

Lookup: Look up Puccinia recondita f. sp. tritici data: pest or weed control at 10 ppm of COC(=O)NCc1cc(-c2ccn(-c3c(Br)cccc3I)n2)ccc1C [Compound 52] , then report it.
Found: 0%

Lookup: Look up Puccinia recondita f. sp. tritici data: pest or weed control at 10 ppm of COC(=O)NCc1cc(-c2ccn(-c3c(F)cc(C(=O)OC)cc3F)n2)ccc1C [Compound 70] , then report it.
Found: 74%

Lookup: Look up Puccinia recondita f. sp. tritici data: pest or weed control at 10 ppm of COC(=O)NCc1cc(-c2ccn(-c3c(F)cccc3F)n2)ccc1C [Compound 4] , then report it.
Found: 90%

Lookup: Look up Puccinia recondita f. sp. tritici data: pest or weed control at 10 ppm of COC(=O)NCc1cc(-c2ccn(-c3c(F)cc(I)cc3SC)n2)ccc1C [Compound 26] , then report it.
Found: 73%

Lookup: Look up Puccinia recondita f. sp. tritici data: pest or weed control at 10 ppm of COC(=O)NCc1cc(-c2ccn(-c3c(F)cc(C(C)=O)cc3F)n2)ccc1C [Compound 68] , then report it.
Found: 74%

Lookup: Look up Puccinia recondita f. sp. tritici data: pest or weed control at 10 ppm of COC(=O)NCc1cc(-c2ccn(-c3c(F)cc(C4OCCCO4)cc3F)n2)ccc1C [Compound 134] , then report it.
Found: 89%

Lookup: Look up Puccinia recondita f. sp. tritici data: pest or weed control at 10 ppm of COC(=O)NCc1cc(-c2ccn(-c3c(Cl)cc(C4CC4)cc3Cl)n2)ccc1C [Compound 65] , then report it.
Found: 97%

Lookup: Look up Puccinia recondita f. sp. tritici data: pest or weed control at 10 ppm of COC(=O)NCc1cc(-c2ccn(-c3c(F)cc(OC4CCC4)cc3F)n2)ccc1C [Compound 13] , then report it.
Found: 100%

----------
Kindly state pest or weed control at 10 ppm for each of the entries shown.
System: Puccinia recondita f. sp. tritici
Test: Test B: wheat leaf rust, spray on wheat seedlings, disease control rating
Format: in vivo
Settings: Puccinia recondita, 192 h; Rate 10 ppm; 100 = 100% disease control, 0 = no disease control relative to the controls
Quick note: give the figure in %, leave out the unit.

Lookup: Look up Puccinia recondita f. sp. tritici data: pest or weed control at 10 ppm of COC(=O)NCc1cc(-c2ccn(-c3c(Cl)cccc3Cl)n2)ccc1C [Compound 44] , then report it.
Found: 68

Lookup: Look up Puccinia recondita f. sp. tritici data: pest or weed control at 10 ppm of COC(=O)NCc1cc(-c2ccn(-c3c(F)cc([N+](=O)[O-])cc3Cl)n2)ccc1C [Compound 37] , then report it.
Found: 26

Lookup: Look up Puccinia recondita f. sp. tritici data: pest or weed control at 10 ppm of COC(=O)NCc1cc(-c2ccn(-c3c(F)cc(OC(C)C)cc3F)n2)ccc1C [Compound 14] , then report it.
Found: 100

Lookup: Look up Puccinia recondita f. sp. tritici data: pest or weed control at 10 ppm of COC(=O)NCc1cc(-c2ccn(-c3c(Cl)cc(C(C)C)cc3Cl)n2)ccc1C [Compound 135] , then report it.
Found: 86

Lookup: Look up Puccinia recondita f. sp. tritici data: pest or weed control at 10 ppm of COC(=O)NCc1cc(-c2ccn(-c3c(F)cc(C(F)(F)F)cc3F)n2)ccc1C [Compound 64] , then report it.
Found: 100

Lookup: Look up Puccinia recondita f. sp. tritici data: pest or weed control at 10 ppm of COC(=O)NCc1cc(-c2ccn(-c3c(F)cc(OC(F)F)cc3F)n2)ccc1C [Compound 15] , then report it.
Found: 99

Lookup: Look up Puccinia recondita f. sp. tritici data: pest or weed control at 10 ppm of COC(=O)NCc1cc(-c2ncn(-c3c(F)cc(Br)cc3F)n2)ccc1C [Compound 104] , then report it.
Found: 100

Lookup: Look up Puccinia recondita f. sp. tritici data: pest or weed control at 10 ppm of COC(=O)NCc1cc(-c2ccn(-c3c(C)cc(N)cc3C)n2)ccc1C [Compound 38] , then report it.
Found: 0

Lookup: Look up Puccinia recondita f. sp. tritici data: pest or weed control at 10 ppm of COC(=O)NCc1cc(-c2ccn(-c3c(C)cc(OC)cc3C)n2)ccc1C [Compound 40] , then report it.
Found: 0

Lookup: Look up Puccinia recondita f. sp. tritici data: pest or weed control at 10 ppm of COC(=O)NCc1cc(-c2ccn(-c3c(C)cc(Cl)cc3C)n2)ccc1C [Compound 49] , then report it.
Found: 68

Lookup: Look up Puccinia recondita f. sp. tritici data: pest or weed control at 10 ppm of COC(=O)NCc1cc(-c2cn(-c3c(F)cc(Cl)cc3F)nn2)ccc1C [Compound 121] , then report it.
Found: 68

Lookup: Look up Puccinia recondita f. sp. tritici data: pest or weed control at 10 ppm of COC(=O)NCc1cc(-c2ccn(-c3c(F)cc(OC)cc3F)n2)ccc1C [Compound 3] , then report it.
Found: 100

Lookup: Look up Puccinia recondita f. sp. tritici data: pest or weed control at 10 ppm of COC(=O)NCc1cc(-c2ccn(-c3c(F)cc(Br)cc3Cl)n2)ccc1C [Compound 50] , then report it.
Found: 100

Lookup: Look up Puccinia recondita f. sp. tritici data: pest or weed control at 10 ppm of COC(=O)NCc1cc(-c2ncn(-c3c(F)cc(C(F)(F)F)cc3F)n2)ccc1C [Compound 103] , then report it.
Found: 100

Lookup: Look up Puccinia recondita f. sp. tritici data: pest or weed control at 10 ppm of COC(=O)NCc1cc(-c2cc(C)n(-c3c(F)cc(OC)cc3F)n2)ccc1C [Compound 102] , then report it.
Found: 0

Lookup: Look up Puccinia recondita f. sp. tritici data: pest or weed control at 10 ppm of COC(=O)NCc1cc(-c2cc(C)n(-c3c(Cl)cccc3Cl)n2)ccc1C [Compound 101] , then report it.
Found: 0

Lookup: Look up Puccinia recondita f. sp. tritici data: pest or weed control at 10 ppm of COC(=O)NCc1cc(-c2cn(-c3c(Cl)cc(OC)cc3Cl)nn2)ccc1C [Compound 123] , then report it.
Found: 0

Lookup: Look up Puccinia recondita f. sp. tritici data: pest or weed control at 10 ppm of COC(=O)NCc1cc(-c2ccn(-c3c(C)cc([N+](=O)[O-])cc3C)n2)ccc1C [Compound 35] , then report it.
Found: 0

Lookup: Look up Puccinia recondita f. sp. tritici data: pest or weed control at 10 ppm of COC(=O)NCc1cc(-c2ccn(-c3c(F)cc(I)cc3F)n2)ccc1C [Compound 8] , then report it.
Found: 100

Lookup: Look up Puccinia recondita f. sp. tritici data: pest or weed control at 10 ppm of COC(=O)NCc1cc(-c2ccn(-c3c(F)cc(C4CC4)cc3F)n2)ccc1C [Compound 41] , then report it.
Found: 100

Lookup: Look up Puccinia recondita f. sp. tritici data: pest or weed control at 10 ppm of COC(=O)NCc1cc(-c2ccn(-c3c(F)cc(N)cc3Cl)n2)ccc1C [Compound 39] , then report it.
Found: 0

Lookup: Look up Puccinia recondita f. sp. tritici data: pest or weed control at 10 ppm of COC(=O)NCc1cc(-c2ccn(-c3c(F)cccc3Br)n2)ccc1C [Compound 46] , then report it.
Found: 68

Lookup: Look up Puccinia recondita f. sp. tritici data: pest or weed control at 10 ppm of COC(=O)NCc1cc(-c2ccn(-c3c(F)cc(OCC(F)(F)F)cc3F)n2)ccc1C [Compound 22] , then report it.
Found: 99

Lookup: Look up Puccinia recondita f. sp. tritici data: pest or weed control at 10 ppm of COC(=O)NCc1cc(-c2cn(-c3c(OC)cc(OC)cc3OC)nn2)ccc1C [Compound 127] , then report it.
Found: 0

Lookup: Look up Puccinia recondita f. sp. tritici data: pest or weed control at 10 ppm of COC(=O)NCc1cc(-c2ccn(-c3c(F)cc([N+](=O)[O-])cc3F)n2)ccc1C [Compound 1] , then report it.
Found: 68

Lookup: Look up Puccinia recondita f. sp. tritici data: pest or weed control at 10 ppm of COC(=O)NCc1cc(-c2ccn(-c3c(F)cc(C(F)F)cc3F)n2)ccc1C [Compound 87] , then report it.
Found: 100

Lookup: Look up Puccinia recondita f. sp. tritici data: pest or weed control at 10 ppm of COC(=O)NCc1cc(-c2cc(C)n(-c3c(F)cccc3F)n2)ccc1C [Compound 100] , then report it.
Found: 0

Lookup: Look up Puccinia recondita f. sp. tritici data: pest or weed control at 10 ppm of COC(=O)NCc1cc(-c2ccn(-c3c(F)cc(Cl)cc3Cl)n2)ccc1C [Compound 51] , then report it.
Found: 100

Lookup: Look up Puccinia recondita f. sp. tritici data: pest or weed control at 10 ppm of COC(=O)NCc1cc(-c2cn(-c3c(Br)cc(OC)cc3[N+](=O)[O-])nn2)ccc1C [Compound 129] , then report it.
Found: 0

Lookup: Look up Puccinia recondita f. sp. tritici data: pest or weed control at 10 ppm of COC(=O)NCc1cc(-c2ccn(-c3c(Cl)cc([N+](=O)[O-])cc3Cl)n2)ccc1C [Compound 54] , then report it.
Found: 0

Lookup: Look up Puccinia recondita f. sp. tritici data: pest or weed control at 10 ppm of COC(=O)NCc1cc(-c2ccn(-c3c(Br)cccc3Br)n2)ccc1C [Compound 58] , then report it.
Found: 68

Lookup: Look up Puccinia recondita f. sp. tritici data: pest or weed control at 10 ppm of COC(=O)NCc1cc(-c2ccn(-c3c(F)cc(OCF)cc3F)n2)ccc1C [Compound 73] , then report it.
Found: 100

Lookup: Look up Puccinia recondita f. sp. tritici data: pest or weed control at 10 ppm of COC(=O)NCc1cc(-c2cnn(-c3c(F)cc(C4CC4)cc3F)n2)ccc1C [Compound 113] , then report it.
Found: 100

Lookup: Look up Puccinia recondita f. sp. tritici data: pest or weed control at 10 ppm of COC(=O)NCc1cc(-c2ccn(-c3c(Br)cc(I)cc3Br)n2)ccc1C [Compound 136] , then report it.
Found: 19
